target: T1, monkey TIM-3 protein with hFc tag (cTIM-3-hFc protein) (monkey; human)
T1 construct: Made in HEK293 cells; also called monkey TIM-3 extracellular domain protein; not shown: human IgG Fc fragment (hFc) of the pCpC vector
T1 chain: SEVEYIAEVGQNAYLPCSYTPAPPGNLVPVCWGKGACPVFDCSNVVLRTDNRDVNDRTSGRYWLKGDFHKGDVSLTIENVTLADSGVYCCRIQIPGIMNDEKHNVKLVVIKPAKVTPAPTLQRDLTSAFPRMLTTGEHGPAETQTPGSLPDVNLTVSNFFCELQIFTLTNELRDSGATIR
experimentalProtocol: ELISA, coated cTIM-3-hFc; antibody 0 nM (blank)
OD450 for assorted binders
readout: OD450

{"columns": ["binder", "observedResult"],
 "data": [
  ["18D2H2 (TIM-3 antibody purified from hybridoma, chimeric antibody of Example 2) (antibody, V domains shown, From hybridoma of Harbour H2L2 transgenic mice: human variable regions, rat constant regions) VH: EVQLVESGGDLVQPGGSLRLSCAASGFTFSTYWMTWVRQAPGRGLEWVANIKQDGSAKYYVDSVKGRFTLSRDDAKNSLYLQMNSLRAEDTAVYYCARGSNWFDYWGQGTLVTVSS VL: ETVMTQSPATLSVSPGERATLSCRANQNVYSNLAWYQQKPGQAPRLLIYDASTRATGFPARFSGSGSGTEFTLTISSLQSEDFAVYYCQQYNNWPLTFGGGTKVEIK", 0.55],
  ["39E5H1 (TIM-3 antibody purified from hybridoma, chimeric antibody of Example 2) (antibody, V domains shown, From hybridoma of Harbour H2L2 transgenic mice: human variable regions, rat constant regions) VH: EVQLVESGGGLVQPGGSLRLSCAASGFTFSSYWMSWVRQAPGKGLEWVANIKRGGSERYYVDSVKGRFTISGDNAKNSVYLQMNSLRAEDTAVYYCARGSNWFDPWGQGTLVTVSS VL: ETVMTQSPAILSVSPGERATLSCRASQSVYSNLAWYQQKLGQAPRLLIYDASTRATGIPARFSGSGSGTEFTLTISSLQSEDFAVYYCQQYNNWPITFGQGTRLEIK", 0.59],
  ["134H3G6 (TIM-3 antibody purified from hybridoma, chimeric antibody of Example 2) (antibody, V domains shown, From hybridoma of Harbour H2L2 transgenic mice: human variable regions, rat constant regions) VH: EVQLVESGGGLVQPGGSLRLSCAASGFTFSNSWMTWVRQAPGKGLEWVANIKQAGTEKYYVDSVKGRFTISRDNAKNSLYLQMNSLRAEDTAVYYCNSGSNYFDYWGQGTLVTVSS VL: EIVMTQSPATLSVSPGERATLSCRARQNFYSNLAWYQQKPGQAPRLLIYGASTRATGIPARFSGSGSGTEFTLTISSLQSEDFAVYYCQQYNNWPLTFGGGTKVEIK", 0.55]
]}
